# credit: paper PMC7961380

% parent compound remaining, Average reference
assay: Metabolic stability, pooled human liver microsome incubations; conditions: pHLM, 6 min

Compound	Measurement Unit	% parent compound remaining, Average
COC(=O)[C@@H](NC(=O)c1nn(CCCCCF)c2ccccc12)C(C)C [(S)-5F-AMB-PINACA (10)]	%	1.8
COC(=O)[C@@H](NC(=O)c1nn(CCCCF)c2ccccc12)C(C)(C)C [(S)-4F-MDMB-BINACA (4)]	%	63.6
CC(C)[C@H](NC(=O)c1nn(Cc2ccc(F)cc2)c2ccccc12)C(N)=O [(S)-AB-FUBINACA (8)]	%	87.3
C=CCCCn1cc(C(=O)N[C@@H](C(=O)OC)C(C)C)c2ccccc21 [(R)-AMB-4en-PICA (7)]	%	36.2
COC(=O)[C@@H](NC(=O)c1nn(Cc2ccc(F)cc2)c2ccccc12)C(C)C [(S)-AMB-FUBINACA (1)]	%	0.7
COC(=O)[C@H](NC(=O)c1nn(CCCCCF)c2ccccc12)C(C)(C)C [(R)-5F-MDMB-PINACA (2)]	%	58.2
COC(=O)[C@H](NC(=O)c1nn(Cc2ccc(F)cc2)c2ccccc12)C(C)(C)C [(R)-MDMB-FUBINACA (6)]	%	75.0
COC(=O)[C@@H](NC(=O)c1cn(CC2CCCCC2)c2ccccc12)C(C)C [(S)-AMB-CHMICA (9)]	%	35.1

###

assay: Metabolic stability, pooled human liver microsome incubations; settings: pHLM, 9 min
Lab note: cut-off is 50%. Strictly less in % parent compound remaining, Average is t. Exactly 50% or more is f.

Compound	Label
C=CCCCn1nc(C(=O)N[C@@H](C(=O)OC)C(C)(C)C)c2ccccc21 [(R)-MDMB-4en-PINACA (5)]	t
COC(=O)[C@H](NC(=O)c1nn(Cc2ccc(F)cc2)c2ccccc12)C(C)(C)C [(R)-MDMB-FUBINACA (6)]	f
COC(=O)C(NC(=O)c1cn(CC2CCCCC2)c2ccccc12)C(C)C (stereo in doubt) [(R)-AMB-CHMICA (9)]	t
COC(=O)[C@@H](NC(=O)c1cn(CC2CCCCC2)c2ccccc12)C(C)C [(S)-AMB-CHMICA (9)]	t
C=CCCCn1cc(C(=O)N[C@H](C(=O)OC)C(C)C)c2ccccc21 [(S)-AMB-4en-PICA (7)]	t
COC(=O)[C@H](NC(=O)c1cn(CCCCCF)c2ccccc12)C(C)(C)C [(R)-5F-MDMB-PICA (3)]	f
COC(=O)[C@@H](NC(=O)c1nn(CCCCCF)c2ccccc12)C(C)C [(S)-5F-AMB-PINACA (10)]	t
COC(=O)[C@H](NC(=O)c1nn(CCCCF)c2ccccc12)C(C)(C)C [(R)-4F-MDMB-BINACA (4)]	f

###

assay: Short-term plasma stability with and without esterase inhibitors; details: 3 h, 37 °C, pH 7.4, BNPP and PMSF 500 µM each
Parent Compound Remaining (%), Esterase Inhibitors reference
Assay Endpoint: Parent Compound Remaining (%), Esterase Inhibitors

Compound	Val
COC(=O)[C@H](NC(=O)c1cn(CCCCCF)c2ccccc12)C(C)(C)C [(R)-5F-MDMB-PICA (3)]	97.7
C=CCCCn1cc(C(=O)N[C@@H](C(=O)OC)C(C)(C)C)c2ccccc21 [(R)-MDMB-4en-PICA (12)]	87.7
COC(=O)[C@H](NC(=O)c1nn(CCCCCF)c2ccccc12)C(C)(C)C [(R)-5F-MDMB-PINACA (2)]	100.1
COC(=O)[C@H](NC(=O)c1nn(CCCCF)c2ccccc12)C(C)(C)C [(R)-4F-MDMB-BINACA (4)]	96.0

###

experiment: Plasma protein binding by equilibrium dialysis; assay type: in vitro ADME, human; conditions: human, pooled human plasma, pH 7.4, equilibrium dialysis 5 h, 37 °C, 10 µg mL^−1; read-out: PPB (%) (converted)
Assay Endpoint: fraction unbound at 5 h, 10 µg mL^−1

Compound	Val
COC(=O)[C@@H](NC(=O)c1nn(Cc2ccc(F)cc2)c2ccccc12)C(C)(C)C [(S)-MDMB-FUBINACA (6)]	0.005
COC(=O)[C@@H](NC(=O)c1cn(CC2CCCCC2)c2ccccc12)C(C)C [(S)-AMB-CHMICA (9)]	0.012
COC(=O)[C@@H](NC(=O)c1cn(CCCCCF)c2ccccc12)C(C)(C)C [(S)-5F-MDMB-PICA (3)]	0.062
COC(=O)[C@H](NC(=O)c1nn(CCCCF)c2ccccc12)C(C)(C)C [(R)-4F-MDMB-BINACA (4)]	0.111
C=CCCCn1nc(C(=O)N[C@@H](C(=O)OC)C(C)(C)C)c2ccccc21 [(R)-MDMB-4en-PINACA (5)]	0.019
C=CCCCn1cc(C(=O)N[C@H](C(=O)OC)C(C)(C)C)c2ccccc21 [(S)-MDMB-4en-PICA (12)]	0.035
CC(C)[C@H](NC(=O)c1nn(Cc2ccc(F)cc2)c2ccccc12)C(N)=O [(S)-AB-FUBINACA (8)]	0.021
CC(C)[C@H](NC(=O)c1nn(CC2CCCCC2)c2ccccc12)C(N)=O [(S)-AB-[…] (11)]	0.028

###

system: pooled human cryopreserved hepatocytes (pHHeps); assay: Metabolic stability, pooled human cryopreserved hepatocyte incubations; details: pHHeps, 99x10^6 hepatocytes per gram liver
Decide by Hepatic extraction ratio, EH: equal to or exceeding 0.6 means Condition met, less means Condition not met.

Compound	Label
C=CCCCn1cc(C(=O)N[C@H](C(=O)OC)C(C)C)c2ccccc21 [(S)-AMB-4en-PICA (7)]	Condition met
COC(=O)[C@H](NC(=O)c1cn(CCCCCF)c2ccccc12)C(C)(C)C [(R)-5F-MDMB-PICA (3)]	Condition not met
CC(C)[C@H](NC(=O)c1nn(Cc2ccc(F)cc2)c2ccccc12)C(N)=O [(S)-AB-FUBINACA (8)]	Condition not met
COC(=O)[C@@H](NC(=O)c1nn(CCCCF)c2ccccc12)C(C)(C)C [(S)-4F-MDMB-BINACA (4)]	Condition not met
COC(=O)[C@@H](NC(=O)c1nn(Cc2ccc(F)cc2)c2ccccc12)C(C)C [(S)-AMB-FUBINACA (1)]	Condition met
C=CCCCn1cc(C(=O)N[C@H](C(=O)OC)C(C)(C)C)c2ccccc21 [(S)-MDMB-4en-PICA (12)]	Condition not met

###

tested on: pooled human cryopreserved hepatocytes (pHHeps); experiment: Metabolic stability, pooled human cryopreserved hepatocyte incubations; conditions: pHHeps, alternative hepatocyte cell density 99x10^6 hepatocytes per gram liver

Compound	Intrinsic clearance, CLint
COC(=O)[C@@H](NC(=O)c1nn(CCCCF)c2ccccc12)C(C)(C)C [(S)-4F-MDMB-BINACA (4)]	432 ± 20.0 mL/min/kg
COC(=O)[C@H](NC(=O)c1nn(CCCCF)c2ccccc12)C(C)(C)C [(R)-4F-MDMB-BINACA (4)]	128 ± 34.6 mL/min/kg
CC(C)[C@@H](NC(=O)c1nn(CC2CCCCC2)c2ccccc12)C(N)=O [(R)-AB-[…] (11)]	197 ± 50.3 mL/min/kg
COC(=O)[C@H](NC(=O)c1nn(CCCCCF)c2ccccc12)C(C)(C)C [(R)-5F-MDMB-PINACA (2)]	309 ± 23.6 mL/min/kg
COC(=O)[C@H](NC(=O)c1cn(CCCCCF)c2ccccc12)C(C)(C)C [(R)-5F-MDMB-PICA (3)]	134 ± 22.3 mL/min/kg
C=CCCCn1cc(C(=O)N[C@@H](C(=O)OC)C(C)(C)C)c2ccccc21 [(R)-MDMB-4en-PICA (12)]	162 ± 22.16 mL/min/kg
CC(C)[C@@H](NC(=O)c1nn(Cc2ccc(F)cc2)c2ccccc12)C(N)=O [(R)-AB-FUBINACA (8)]	105 ± 14.6 mL/min/kg

###

assay: Short-term plasma stability with and without esterase inhibitors; settings: human, pH 7.4, Parent Compound Remaining (%), Esterase Inhibitors, 3 h, 37 °C, pH 7.4, BNPP and PMSF 500 µM each
Assay Endpoint: remaining at 3 h, 5 µM (%)

Compound	Val
COC(=O)[C@@H](NC(=O)c1cn(CCCCCF)c2ccccc12)C(C)(C)C [(S)-5F-MDMB-PICA (3)]	99.5
COC(=O)[C@@H](NC(=O)c1nn(CCCCF)c2ccccc12)C(C)(C)C [(S)-4F-MDMB-BINACA (4)]	96
CC(C)[C@H](NC(=O)c1nn(CC2CCCCC2)c2ccccc12)C(N)=O [(S)-AB-[…] (11)]	97.9
CC(C)[C@H](NC(=O)c1nn(Cc2ccc(F)cc2)c2ccccc12)C(N)=O [(S)-AB-FUBINACA (8)]	103

###

experiment: Metabolic stability, pooled human liver microsome incubations; details: pHLM, alternative microsomal scaling factor 45 mg microsomal protein per gram liver
Decide by Intrinsic clearance, CLint: equal to or exceeding 7 L/h/kg means MET, less means NOT MET.

Compound	Label
CC(C)[C@@H](NC(=O)c1nn(CC2CCCCC2)c2ccccc12)C(N)=O [(R)-AB-[…] (11)]	NOT MET
CC(C)[C@@H](NC(=O)c1nn(Cc2ccc(F)cc2)c2ccccc12)C(N)=O [(R)-AB-FUBINACA (8)]	NOT MET
C=CCCCn1cc(C(=O)N[C@@H](C(=O)OC)C(C)(C)C)c2ccccc21 [(R)-MDMB-4en-PICA (12)]	MET
COC(=O)[C@H](NC(=O)c1nn(CCCCF)c2ccccc12)C(C)(C)C [(R)-4F-MDMB-BINACA (4)]	NOT MET
COC(=O)[C@H](NC(=O)c1nn(CCCCCF)c2ccccc12)C(C)(C)C [(R)-5F-MDMB-PINACA (2)]	MET
COC(=O)[C@H](NC(=O)c1cn(CCCCCF)c2ccccc12)C(C)(C)C [(R)-5F-MDMB-PICA (3)]	MET
